# TEST SYSTEM: ATR/ATRIP (Homo sapiens (Human), UniProt Q13535)
# Sequence (Q13535 whole entry): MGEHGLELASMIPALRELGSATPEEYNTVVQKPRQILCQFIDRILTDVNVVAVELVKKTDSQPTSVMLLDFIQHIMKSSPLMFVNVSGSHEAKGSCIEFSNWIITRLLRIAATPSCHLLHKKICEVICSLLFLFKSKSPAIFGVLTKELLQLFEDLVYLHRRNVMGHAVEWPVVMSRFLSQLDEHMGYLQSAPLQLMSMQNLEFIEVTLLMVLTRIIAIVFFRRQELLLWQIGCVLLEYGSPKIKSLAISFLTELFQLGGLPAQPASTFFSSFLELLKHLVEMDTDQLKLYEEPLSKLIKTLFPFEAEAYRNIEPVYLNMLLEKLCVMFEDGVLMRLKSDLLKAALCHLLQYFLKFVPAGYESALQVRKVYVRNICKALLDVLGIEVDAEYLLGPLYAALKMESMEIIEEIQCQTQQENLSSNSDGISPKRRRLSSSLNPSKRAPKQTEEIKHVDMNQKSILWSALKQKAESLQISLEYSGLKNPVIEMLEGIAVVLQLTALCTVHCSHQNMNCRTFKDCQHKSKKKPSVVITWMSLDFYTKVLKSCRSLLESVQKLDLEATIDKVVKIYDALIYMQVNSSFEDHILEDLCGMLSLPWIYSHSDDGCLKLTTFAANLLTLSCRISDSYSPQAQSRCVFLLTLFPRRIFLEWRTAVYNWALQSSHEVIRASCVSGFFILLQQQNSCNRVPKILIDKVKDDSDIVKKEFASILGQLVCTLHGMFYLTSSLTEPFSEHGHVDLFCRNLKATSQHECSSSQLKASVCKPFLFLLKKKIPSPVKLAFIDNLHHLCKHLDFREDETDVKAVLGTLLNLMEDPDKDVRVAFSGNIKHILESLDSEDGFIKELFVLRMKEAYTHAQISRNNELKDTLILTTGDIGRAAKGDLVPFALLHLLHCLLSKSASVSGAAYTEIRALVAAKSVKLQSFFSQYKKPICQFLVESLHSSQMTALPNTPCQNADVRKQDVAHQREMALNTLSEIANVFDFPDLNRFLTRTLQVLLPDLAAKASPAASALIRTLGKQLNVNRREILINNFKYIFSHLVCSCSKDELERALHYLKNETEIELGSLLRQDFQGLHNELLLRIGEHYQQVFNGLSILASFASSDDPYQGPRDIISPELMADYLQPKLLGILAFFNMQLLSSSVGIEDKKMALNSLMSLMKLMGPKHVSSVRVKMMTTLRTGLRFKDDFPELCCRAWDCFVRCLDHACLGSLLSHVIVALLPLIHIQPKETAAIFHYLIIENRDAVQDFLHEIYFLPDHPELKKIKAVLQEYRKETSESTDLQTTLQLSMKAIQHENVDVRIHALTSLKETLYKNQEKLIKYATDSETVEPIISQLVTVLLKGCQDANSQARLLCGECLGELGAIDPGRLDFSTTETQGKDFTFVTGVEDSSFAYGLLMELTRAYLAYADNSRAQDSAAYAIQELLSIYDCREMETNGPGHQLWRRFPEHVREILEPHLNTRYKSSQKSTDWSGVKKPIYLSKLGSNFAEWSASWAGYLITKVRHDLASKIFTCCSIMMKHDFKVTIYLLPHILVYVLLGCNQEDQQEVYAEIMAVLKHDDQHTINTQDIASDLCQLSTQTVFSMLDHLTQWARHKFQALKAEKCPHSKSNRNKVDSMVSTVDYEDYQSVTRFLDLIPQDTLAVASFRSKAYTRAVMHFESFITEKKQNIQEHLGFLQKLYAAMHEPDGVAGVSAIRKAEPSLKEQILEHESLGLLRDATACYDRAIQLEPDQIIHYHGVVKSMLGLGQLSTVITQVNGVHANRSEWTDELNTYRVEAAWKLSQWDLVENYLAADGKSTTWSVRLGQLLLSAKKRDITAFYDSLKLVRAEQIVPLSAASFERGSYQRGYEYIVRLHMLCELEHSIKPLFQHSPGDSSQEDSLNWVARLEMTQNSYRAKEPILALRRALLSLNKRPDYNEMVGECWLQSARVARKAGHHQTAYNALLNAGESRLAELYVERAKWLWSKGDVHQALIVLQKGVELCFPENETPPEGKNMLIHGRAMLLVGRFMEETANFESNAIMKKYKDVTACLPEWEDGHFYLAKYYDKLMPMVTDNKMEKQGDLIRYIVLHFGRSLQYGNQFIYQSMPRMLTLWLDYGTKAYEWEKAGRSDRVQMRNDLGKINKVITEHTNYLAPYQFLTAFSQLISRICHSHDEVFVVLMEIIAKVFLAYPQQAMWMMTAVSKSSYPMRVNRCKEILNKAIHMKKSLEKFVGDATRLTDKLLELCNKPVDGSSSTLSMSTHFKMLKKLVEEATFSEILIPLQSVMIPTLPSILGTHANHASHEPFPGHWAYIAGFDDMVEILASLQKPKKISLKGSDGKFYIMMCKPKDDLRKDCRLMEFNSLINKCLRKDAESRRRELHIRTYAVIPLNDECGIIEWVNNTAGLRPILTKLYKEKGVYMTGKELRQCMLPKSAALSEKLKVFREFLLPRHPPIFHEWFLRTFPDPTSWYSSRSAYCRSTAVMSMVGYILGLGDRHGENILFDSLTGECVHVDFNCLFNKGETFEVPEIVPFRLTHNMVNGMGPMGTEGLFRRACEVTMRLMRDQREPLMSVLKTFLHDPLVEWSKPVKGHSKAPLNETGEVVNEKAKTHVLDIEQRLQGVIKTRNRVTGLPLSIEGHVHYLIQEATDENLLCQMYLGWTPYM
# Sequence (Q8WXE1 whole entry partner): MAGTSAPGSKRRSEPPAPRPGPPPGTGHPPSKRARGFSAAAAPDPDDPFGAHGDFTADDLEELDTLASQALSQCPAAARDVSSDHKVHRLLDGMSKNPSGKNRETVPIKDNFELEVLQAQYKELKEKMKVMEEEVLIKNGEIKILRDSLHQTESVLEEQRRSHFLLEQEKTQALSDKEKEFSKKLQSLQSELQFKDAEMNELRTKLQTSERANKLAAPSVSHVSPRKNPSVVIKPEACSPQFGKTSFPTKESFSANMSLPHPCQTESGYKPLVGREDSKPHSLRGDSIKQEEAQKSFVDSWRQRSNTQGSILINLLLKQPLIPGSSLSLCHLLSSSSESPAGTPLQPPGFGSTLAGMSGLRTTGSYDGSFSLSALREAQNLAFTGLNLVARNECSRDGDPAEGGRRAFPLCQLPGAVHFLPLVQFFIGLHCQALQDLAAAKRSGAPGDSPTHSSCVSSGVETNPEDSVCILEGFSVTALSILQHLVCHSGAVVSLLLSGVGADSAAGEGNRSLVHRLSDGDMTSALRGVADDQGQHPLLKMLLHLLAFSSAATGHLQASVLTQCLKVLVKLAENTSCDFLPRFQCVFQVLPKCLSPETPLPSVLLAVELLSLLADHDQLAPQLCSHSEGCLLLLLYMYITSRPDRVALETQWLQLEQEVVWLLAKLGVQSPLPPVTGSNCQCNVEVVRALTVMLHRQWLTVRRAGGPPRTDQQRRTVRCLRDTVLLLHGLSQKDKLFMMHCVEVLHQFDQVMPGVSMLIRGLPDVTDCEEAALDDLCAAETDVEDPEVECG
# TEST DETAILS: ATR/ATRIP kinase assay (TR-FRET, p53 Ser15 phosphorylation)
# CONDITIONS USED: 0.5 μM ATP, 50 nM p53
pIC50: −log10 of the molar value.
// reported pIC50 per item

COMPOUND	TEST SYSTEM	pIC50
C[C@@H]1COCCN1c1cc(-c2ccnc3[nH]ccc23)c2nn(C)c(-c3cc[nH]n3)c2n1 [Compound 16]	ATR/ATRIP (Homo sapiens (Human), UniProt Q13535)	7.17
CC(c1cc(N2CCOC[C@H]2C)nc2c(-c3cc[nH]n3)nn(C)c12)S(C)(=O)=O (some centres unmarked) [Compound 89]	ATR/ATRIP (Homo sapiens (Human), UniProt Q13535)	9.05
C[C@@H]1COCCN1c1ccc2c(n1)c(-c1cc[nH]n1)nn2CCc1ccccc1 [Compound 64]	ATR/ATRIP (Homo sapiens (Human), UniProt Q13535)	7.29
C[C@@H]1COCCN1c1cc(-c2ccc(C(F)(F)F)nc2)c2c(n1)c(-c1cc[nH]n1)nn2C [Compound 65]	ATR/ATRIP (Homo sapiens (Human), UniProt Q13535)	8.24
Cc1ccc(S(C)(=O)=O)cc1-c1cc(N2CCOC[C@H]2C)nc2c(-c3ccn[nH]3)nn(C)c12 [Compound 75]	ATR/ATRIP (Homo sapiens (Human), UniProt Q13535)	7.68
C[C@@H]1COCCN1c1ccc2c(n1)c(-c1cc[nH]n1)nn2CC1CC1 [Compound 63]	ATR/ATRIP (Homo sapiens (Human), UniProt Q13535)	7.57
Cc1nn(C)cc1-c1cc(N2CCOC[C@H]2C)nc2c(-c3cc[nH]n3)nn(C)c12 [Compound 19]	ATR/ATRIP (Homo sapiens (Human), UniProt Q13535)	8.47
C[C@@H]1COCCN1c1ccc2c(n1)c(-c1cc[nH]n1)nn2C(C)(C)CO [Compound 86]	ATR/ATRIP (Homo sapiens (Human), UniProt Q13535)	7.62
